Experimental parameters: buffer; pH 7.4; 200.0 µM
Measure: solubility kinetic

Compound: Cc1nc(C)c(/C(O)=C\c2nc3ccc([N+](=O)[O-])cc3oc2=O)o1
Measure: solubility kinetic
Assay value: > 0.0494 mg/mL
--
Compound: CCNC(=O)COC(=O)c1cc(C)nc2ccccc12
Measure: solubility kinetic
Assay value: > 0.0408 mg/mL
--
Compound: Cc1nn(C)c(C)c1/C=C/C(=O)O
Measure: solubility kinetic
Assay value: > 0.027 mg/mL
--
Compound: Cc1ccccc1OCC(=O)NCCNC(=O)c1ccncc1
Measure: solubility kinetic
Assay value: > 0.047 mg/mL
--
Compound: CC1CCCCN1C(=O)COC(=O)c1ccc(N2CCCC2=O)cc1 (stereo not given)
Measure: solubility kinetic
Assay value: > 0.0517 mg/mL
--
Compound: CSc1ccccc1NC(=O)Cc1ccccc1
Measure: solubility kinetic
Assay value: > 0.0386 mg/mL
--
Compound: CC1CN(C2=CC(=O)CCC2)CC(C)O1 (stereo not given)
Measure: solubility kinetic
Assay value: > 0.0314 mg/mL
--
Compound: CCN(CC)C(=O)CN1CCC(c2nc3cc(C)c(C)cc3[nH]2)CC1
Measure: solubility kinetic
Assay value: > 0.0514 mg/mL
--
Compound: O=C(CS(=O)(=O)c1ccccc1)Nc1nc2ccccc2s1
Measure: solubility kinetic
Assay value: > 0.0499 mg/mL
--
Compound: COc1ccc(CC(=O)OCC(=O)NC2CCCCC2)cc1OC
Measure: solubility kinetic
Assay value: > 0.0503 mg/mL
--
Compound: CCOc1ccc(CC(=O)N/N=C(\C)c2cccnc2)cc1
Measure: solubility kinetic
Assay value: > 0.0446 mg/mL
--
Compound: COc1cccc(OCC(=O)O/N=C(\N)c2ccncc2)c1
Measure: solubility kinetic
Assay value: 0.0399 mg/mL
--
Compound: O=C(O)C1=C(Nc2ccccc2)OCC1=O
Measure: solubility kinetic
Assay value: > 0.0329 mg/mL
--
Compound: COC(C(=O)Nc1ccc(Br)cc1F)c1ccccc1 (stereo not given)
Measure: solubility kinetic
Assay value: 0.0261 mg/mL
--
Compound: CN(C)[C@@H]1C(=O)C(C(N)=O)=C(O)[C@@]2(O)C(=O)C3=C(O)c4c(O)cccc4[C@@](C)(O)[C@H]3[C@H](O)[C@@H]12
Measure: solubility kinetic
Assay value: 0.047 mg/mL

* * *

Experimental parameters: buffer; pH 7.4; 200.0 µM
Reported solubility kinetic by item:

Compound: CC(C)OP(=O)(OC(C)C)C(C)NC(=O)Cc1ccccc1 (centres undefined)
solubility kinetic: 44.4 µg/mL
//
Compound: CC1CCCCN1CC(=O)c1c[nH]c2ccccc12 (centres undefined)
solubility kinetic: > 38.5 µg/mL
//
Compound: CC(C)CCC(C)NC(=O)c1ccc2nccnc2c1 (centres undefined)
solubility kinetic: 34.6 µg/mL
//
Compound: Cc1cccc(N2CN(S(=O)(=O)c3cccc([N+](=O)[O-])c3)c3nc4ccccc4nc32)c1
solubility kinetic: 0.7 µg/mL

* * *

solubility kinetic values for the compounds below.
Experimental parameters: buffer; pH 7.4; 200.0 µM
Measure: solubility kinetic

Compound: Cn1cccc1C1C(C#N)=C(N)OC2=C1C(=O)CCC2 (centres undefined)
Assay value: > 40.4 µg/mL
--
Compound: COc1ccc(N2CC(C(=O)N3CCCC(C)C3)CC2=O)cc1 (centres undefined)
Assay value: > 47.5 µg/mL
--
Compound: COc1ccc(CCC(=O)OCC(=O)NCc2ccc(OC)c(OC)c2)cc1OC
Assay value: > 62.6 µg/mL
--
Compound: CC1CN(S(=O)(=O)c2cc(C(=O)NC(C)c3cccnc3)ccc2Cl)CC(C)O1 (centres undefined)
Assay value: > 65.7 µg/mL
--
Compound: CN(C)C(CNC(=O)C1CCCN1C(=O)c1cccs1)c1ccccc1 (centres undefined)
Assay value: > 55.7 µg/mL
--
Compound: O=C(N/N=C/c1cccs1)c1cccnc1
Assay value: > 34.7 µg/mL
--
Compound: CC(C)CC(=O)Nc1ccc(S(=O)(=O)N2CCCC2)cc1
Assay value: > 46.6 µg/mL
--
Compound: COc1cccc(OC)c1C(=O)Nc1cccnc1
Assay value: > 38.7 µg/mL
--
Compound: Cc1cc(C)nc(N2C(=O)CC(Cc3ccc(Cl)cc3)C2=O)n1 (centres undefined)
Assay value: > 49.5 µg/mL
